Numbers sourced from patent US5248674A.

- MEASUREMENT NOTES: In vivo study - plasma AZT level by percutaneous (oleic acid pretreated skin) and oral administration of AZT
- Parameters: species or system rat (Wistar strain, male)
- CONDITION SUMMARY: plasma, topical or ocular; percutaneous, 1 ml 0.5% AZT + 10% oleic acid, 4.9 cm^2, rat; 24 h
EXPERIMENTAL ENDPOINT: concentration at 24 h (µM)
Answers are plain numbers, in µM.

Req: Please look up its concentration at 24 h: Cc1cn([C@H]2C[C@H](N=[N+]=[N-])[C@@H](CO)O2)c(=O)[nH]c1=O [AZT, 3'-azide-3'-deoxythymidine]
Resp: 4
